Biological target: PI3Kδ (p110δ/p85α) Recombinant Human Protein (Homo sapiens (Human), UniProt O00329)
Sequence (O00329 whole entry): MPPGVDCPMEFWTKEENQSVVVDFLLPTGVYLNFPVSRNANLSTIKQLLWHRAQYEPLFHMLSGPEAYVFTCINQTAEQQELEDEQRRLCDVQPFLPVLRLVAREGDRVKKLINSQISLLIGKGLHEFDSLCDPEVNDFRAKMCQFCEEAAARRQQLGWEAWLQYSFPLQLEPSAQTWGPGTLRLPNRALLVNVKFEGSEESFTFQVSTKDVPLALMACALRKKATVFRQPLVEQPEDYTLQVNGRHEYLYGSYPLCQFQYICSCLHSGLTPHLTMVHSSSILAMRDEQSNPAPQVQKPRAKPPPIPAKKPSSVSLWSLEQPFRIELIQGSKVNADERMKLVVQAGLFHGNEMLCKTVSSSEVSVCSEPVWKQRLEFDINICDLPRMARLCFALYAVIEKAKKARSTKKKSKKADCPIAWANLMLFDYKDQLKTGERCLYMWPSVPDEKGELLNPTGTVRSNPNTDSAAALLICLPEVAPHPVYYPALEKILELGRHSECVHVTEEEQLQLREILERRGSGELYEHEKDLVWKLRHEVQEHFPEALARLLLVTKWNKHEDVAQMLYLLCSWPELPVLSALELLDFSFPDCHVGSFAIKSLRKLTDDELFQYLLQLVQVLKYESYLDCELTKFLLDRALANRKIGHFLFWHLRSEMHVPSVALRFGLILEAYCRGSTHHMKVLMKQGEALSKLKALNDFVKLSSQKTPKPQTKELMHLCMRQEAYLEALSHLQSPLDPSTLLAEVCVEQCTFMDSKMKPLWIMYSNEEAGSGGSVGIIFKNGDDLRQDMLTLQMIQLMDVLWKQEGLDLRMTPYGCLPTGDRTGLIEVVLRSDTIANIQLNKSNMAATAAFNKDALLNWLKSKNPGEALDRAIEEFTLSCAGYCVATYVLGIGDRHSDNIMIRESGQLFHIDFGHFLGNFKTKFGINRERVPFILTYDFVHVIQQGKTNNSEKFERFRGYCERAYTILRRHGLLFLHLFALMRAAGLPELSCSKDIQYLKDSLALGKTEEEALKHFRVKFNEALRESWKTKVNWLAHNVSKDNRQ
Sequence (P27986 whole entry partner): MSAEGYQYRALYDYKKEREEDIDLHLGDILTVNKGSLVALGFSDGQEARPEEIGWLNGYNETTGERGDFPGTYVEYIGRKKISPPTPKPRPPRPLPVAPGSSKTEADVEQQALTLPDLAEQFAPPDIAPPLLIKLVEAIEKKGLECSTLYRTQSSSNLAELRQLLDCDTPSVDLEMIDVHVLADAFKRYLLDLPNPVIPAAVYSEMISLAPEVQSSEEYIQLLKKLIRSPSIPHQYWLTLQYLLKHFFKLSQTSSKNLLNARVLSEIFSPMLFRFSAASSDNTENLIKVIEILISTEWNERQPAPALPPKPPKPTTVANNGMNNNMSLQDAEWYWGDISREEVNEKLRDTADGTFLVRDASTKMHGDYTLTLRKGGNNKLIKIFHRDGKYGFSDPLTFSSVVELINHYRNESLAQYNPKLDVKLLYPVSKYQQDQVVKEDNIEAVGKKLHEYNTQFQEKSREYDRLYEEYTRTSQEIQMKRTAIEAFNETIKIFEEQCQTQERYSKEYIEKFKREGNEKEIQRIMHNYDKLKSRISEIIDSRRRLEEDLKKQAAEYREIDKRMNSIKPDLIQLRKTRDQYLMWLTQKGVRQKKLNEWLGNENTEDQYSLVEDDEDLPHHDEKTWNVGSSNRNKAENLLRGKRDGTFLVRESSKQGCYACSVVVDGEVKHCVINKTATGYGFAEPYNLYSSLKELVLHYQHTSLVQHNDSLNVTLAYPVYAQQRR
Assay: PI3Kδ Scintillation Proximity Assay
Where a name gives a salt, the structure may show the parent alone.
Measured quantity: IC50

{"columns": ["Compound", "Tgt", "IC50"],
 "data": [
  ["N#CC12CCC(NS(=O)(=O)c3ccc(OC(F)(F)F)c(-c4cnc5c(N)ncnn45)c3)(C1)C2 [Example 373, trifluoroacetate salt]", "PI3Kδ (p110δ/p85α) Recombinant Human Protein (Homo sapiens (Human), UniProt O00329)", "500 to 2000 nM"]
]}

Kindly review the next compound as well.
Look up IC50 of Cc1ccc(S(=O)(=O)N2CCN3CCCC3C2)cc1-c1cnc2c(N)ncnn12 (stereo not drawn) and report it.
500 to 2000 nM

* * *

Target: PI3Kγ (p110γ) Recombinant Human Protein (Homo sapiens (Human))
Sequence (P48736 whole entry): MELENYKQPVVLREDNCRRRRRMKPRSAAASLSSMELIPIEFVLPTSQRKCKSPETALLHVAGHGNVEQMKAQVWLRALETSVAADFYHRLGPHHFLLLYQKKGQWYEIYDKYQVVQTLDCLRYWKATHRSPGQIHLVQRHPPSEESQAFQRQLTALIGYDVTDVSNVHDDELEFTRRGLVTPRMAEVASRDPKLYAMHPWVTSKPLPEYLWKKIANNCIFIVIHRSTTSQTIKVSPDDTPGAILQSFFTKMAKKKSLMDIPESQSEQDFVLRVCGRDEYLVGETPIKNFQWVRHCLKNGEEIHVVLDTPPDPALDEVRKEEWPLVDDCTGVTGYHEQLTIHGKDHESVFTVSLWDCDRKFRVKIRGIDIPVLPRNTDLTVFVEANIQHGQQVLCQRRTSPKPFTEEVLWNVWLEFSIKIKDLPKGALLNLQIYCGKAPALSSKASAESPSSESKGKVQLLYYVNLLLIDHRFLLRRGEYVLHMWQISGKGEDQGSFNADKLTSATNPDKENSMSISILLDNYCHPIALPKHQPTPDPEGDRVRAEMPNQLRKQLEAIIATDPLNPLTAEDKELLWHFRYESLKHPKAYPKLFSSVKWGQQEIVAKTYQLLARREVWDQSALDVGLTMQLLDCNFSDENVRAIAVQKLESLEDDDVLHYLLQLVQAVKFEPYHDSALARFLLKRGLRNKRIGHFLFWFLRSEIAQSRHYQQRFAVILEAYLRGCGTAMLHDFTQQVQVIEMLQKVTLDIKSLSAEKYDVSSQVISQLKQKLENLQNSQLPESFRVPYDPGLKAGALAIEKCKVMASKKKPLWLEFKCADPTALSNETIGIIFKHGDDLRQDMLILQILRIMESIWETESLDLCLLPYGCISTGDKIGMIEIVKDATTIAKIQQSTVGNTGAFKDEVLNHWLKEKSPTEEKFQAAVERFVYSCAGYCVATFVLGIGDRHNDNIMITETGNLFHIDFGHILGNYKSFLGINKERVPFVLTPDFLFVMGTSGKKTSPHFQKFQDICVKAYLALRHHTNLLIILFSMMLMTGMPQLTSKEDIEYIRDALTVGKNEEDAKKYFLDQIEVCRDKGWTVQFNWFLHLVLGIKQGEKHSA
Test: PI3K-γ Scintillation Proximity Assay
Type: biochemical
Conditions: read-out: PI3Kγ IC50
pIC50: −log10 of the molar value. Where a name gives a salt, the structure may show the parent alone.
Measured quantity: pIC50

{"columns": ["Compound", "Measured quantity", "Val"],
 "data": [
  ["Cc1ccc(S(=O)(=O)NC23CC(CO)(C2)C3)cc1-c1cnc2c(N)ncnn12 [Example 105, trifluoroacetate salt]", "pIC50", "> 7.00"],
  ["Cc1nc(N)c2ncc(-c3cc(S(=O)(=O)NC45CCC(O)(CC4)C5)ccc3C)n2n1 [Example 443, trifluoroacetate salt]", "pIC50", "> 7.00"],
  ["CCS(=O)(=O)Nc1cc(-c2cnc3c(N)cccn23)cnc1F [Example 2, bis(trifluoroacetate)]", "pIC50", "6.30 to 7.00"],
  ["Cc1ccc(S(=O)(=O)Nc2ccc(C(=O)NCC(F)(F)F)nc2)cc1-c1cnc2c(N)ncnn12 [Example 539, trifluoroacetate]", "pIC50", "> 7.00"],
  ["Cc1ccc(S(=O)(=O)N2CCC(O)C3(CC3)C2)cc1-c1cnc2c(N)ncnn12 (stereo not shown) [Example 119]", "pIC50", "6.30 to 7.00"]
]}

Look up pIC50 of Cc1ccc(S(=O)(=O)NC23CC(N)(C2)C3)cc1-c1cnc2c(N)nc(C(F)(F)F)nn12 [Example 341, trifluoroacetate salt] and report it.
> 7.00

Look up pIC50 of COC(=O)N1CCCC(NC(=O)c2cn3c(-c4cc(S(C)(=O)=O)ccc4C)cnc3c(N)n2)C1 (stereo not shown) [Example 461, trifluoroacetate salt] and report it.
6.30 to 7.00

* * *

Tested on: Phosphorylated Ribosomal Protein S6 (RPS6)
Assay: THP-1 RPS6 ELISA Assay
Format: cell-based, Human
Conditions: THP-1 cells; read-out: PI3Kγ_THP1_RPS6_ELISA IC50
Counter-ions that a name gives are not always drawn.
Measured quantity: IC50

The following compounds have reported results that may help.
{"columns": ["Compound", "Tgt", "IC50"],
 "data": [
  ["Cc1nc(N)c2ncc(-c3ccc(F)c(S(=O)(=O)NC45CC(C#N)(C4)C5)c3)n2n1 [Example 388, trifluoroacetate salt]", "Phosphorylated Ribosomal Protein S6 (RPS6)", "> 1000 nM"],
  ["C[C@]1(O)CC[C@H](NS(=O)(=O)c2cc(-c3cnc4c(N)nc(-c5ccncc5F)cn34)ccc2F)CC1 [Example 422]", "Phosphorylated Ribosomal Protein S6 (RPS6)", "< 100 nM"],
  ["Cc1ccc(S(=O)(=O)CCC(C)(C)O)cc1-c1cnc2c(N)nc(C(F)(F)F)cn12 [Example 495]", "Phosphorylated Ribosomal Protein S6 (RPS6)", "> 1000 nM"]
]}

Look up IC50 of Cc1ccc(S(=O)(=O)N[C@H]2C[C@H](CO)C2)cc1-c1cnc2c(N)ncnn12 [Example 60] and report it.
100 to 500 nM
